molecular target: Human Cav2.2 channels (Homo sapiens); construct: expressed in transfected cells; test: Fluorescent assay for Cav2.2 channels using potassium depolarization to initiate channel opening; assay type: cell-based; settings: 30 μM compound; read-out: Cav 2.2 Activity % Inh at 30 μM
Sequence (Q00975 whole entry): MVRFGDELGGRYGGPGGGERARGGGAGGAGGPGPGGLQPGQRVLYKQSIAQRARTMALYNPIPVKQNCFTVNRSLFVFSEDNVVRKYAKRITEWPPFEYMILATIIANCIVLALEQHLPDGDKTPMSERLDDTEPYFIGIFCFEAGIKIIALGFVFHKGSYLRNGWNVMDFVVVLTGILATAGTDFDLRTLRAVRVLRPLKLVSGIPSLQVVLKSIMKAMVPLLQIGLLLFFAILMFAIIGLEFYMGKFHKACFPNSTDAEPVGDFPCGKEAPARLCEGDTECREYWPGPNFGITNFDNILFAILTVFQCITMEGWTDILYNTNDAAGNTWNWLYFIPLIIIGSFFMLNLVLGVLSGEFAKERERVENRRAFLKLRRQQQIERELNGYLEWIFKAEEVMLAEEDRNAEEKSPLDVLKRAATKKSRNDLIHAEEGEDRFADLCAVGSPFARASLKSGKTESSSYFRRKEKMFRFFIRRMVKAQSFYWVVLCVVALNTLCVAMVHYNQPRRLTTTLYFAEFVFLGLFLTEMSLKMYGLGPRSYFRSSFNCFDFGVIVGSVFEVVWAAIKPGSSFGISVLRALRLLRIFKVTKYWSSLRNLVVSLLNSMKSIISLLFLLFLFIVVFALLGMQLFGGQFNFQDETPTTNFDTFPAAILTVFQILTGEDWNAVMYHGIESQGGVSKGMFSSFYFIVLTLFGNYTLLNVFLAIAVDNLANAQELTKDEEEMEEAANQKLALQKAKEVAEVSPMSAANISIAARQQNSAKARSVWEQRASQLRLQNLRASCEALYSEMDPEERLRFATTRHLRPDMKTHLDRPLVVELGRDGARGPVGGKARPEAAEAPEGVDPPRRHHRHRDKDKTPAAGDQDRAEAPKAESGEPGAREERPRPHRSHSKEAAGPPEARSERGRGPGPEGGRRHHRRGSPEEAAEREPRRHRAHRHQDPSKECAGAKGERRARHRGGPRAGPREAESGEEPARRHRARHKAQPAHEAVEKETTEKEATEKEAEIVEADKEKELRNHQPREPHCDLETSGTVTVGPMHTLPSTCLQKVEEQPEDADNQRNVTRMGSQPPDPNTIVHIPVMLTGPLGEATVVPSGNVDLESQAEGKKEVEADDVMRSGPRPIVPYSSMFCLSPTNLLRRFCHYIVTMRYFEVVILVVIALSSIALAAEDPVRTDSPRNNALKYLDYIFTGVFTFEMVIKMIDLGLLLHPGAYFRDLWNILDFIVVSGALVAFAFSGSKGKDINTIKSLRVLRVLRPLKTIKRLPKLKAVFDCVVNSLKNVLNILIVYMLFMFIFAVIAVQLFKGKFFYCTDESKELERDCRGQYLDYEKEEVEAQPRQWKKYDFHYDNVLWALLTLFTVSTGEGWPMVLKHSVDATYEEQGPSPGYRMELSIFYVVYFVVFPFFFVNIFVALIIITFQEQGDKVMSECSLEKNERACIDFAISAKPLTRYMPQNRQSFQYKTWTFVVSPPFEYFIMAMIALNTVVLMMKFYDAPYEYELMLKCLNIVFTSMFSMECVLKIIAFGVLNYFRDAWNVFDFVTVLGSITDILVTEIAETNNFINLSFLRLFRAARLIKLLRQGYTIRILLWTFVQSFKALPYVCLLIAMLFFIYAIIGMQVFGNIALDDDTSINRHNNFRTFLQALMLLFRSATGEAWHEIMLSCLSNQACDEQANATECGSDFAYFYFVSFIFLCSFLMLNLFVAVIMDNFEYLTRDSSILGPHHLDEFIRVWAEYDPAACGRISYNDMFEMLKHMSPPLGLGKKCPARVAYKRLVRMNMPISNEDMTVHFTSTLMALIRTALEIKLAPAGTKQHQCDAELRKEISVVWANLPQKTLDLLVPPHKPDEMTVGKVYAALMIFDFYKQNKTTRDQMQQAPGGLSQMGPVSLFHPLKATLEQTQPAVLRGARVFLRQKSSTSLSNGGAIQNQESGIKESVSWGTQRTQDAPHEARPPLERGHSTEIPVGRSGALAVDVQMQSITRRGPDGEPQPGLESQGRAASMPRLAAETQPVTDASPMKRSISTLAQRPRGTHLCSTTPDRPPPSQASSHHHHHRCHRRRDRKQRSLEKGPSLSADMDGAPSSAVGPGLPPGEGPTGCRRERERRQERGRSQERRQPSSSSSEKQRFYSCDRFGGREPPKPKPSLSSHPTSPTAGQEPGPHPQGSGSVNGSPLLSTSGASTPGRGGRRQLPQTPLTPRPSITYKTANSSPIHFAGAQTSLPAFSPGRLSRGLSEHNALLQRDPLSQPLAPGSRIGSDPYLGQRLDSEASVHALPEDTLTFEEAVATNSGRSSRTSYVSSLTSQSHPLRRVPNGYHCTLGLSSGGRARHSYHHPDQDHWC
Sequence (P54289 25-1103 partner): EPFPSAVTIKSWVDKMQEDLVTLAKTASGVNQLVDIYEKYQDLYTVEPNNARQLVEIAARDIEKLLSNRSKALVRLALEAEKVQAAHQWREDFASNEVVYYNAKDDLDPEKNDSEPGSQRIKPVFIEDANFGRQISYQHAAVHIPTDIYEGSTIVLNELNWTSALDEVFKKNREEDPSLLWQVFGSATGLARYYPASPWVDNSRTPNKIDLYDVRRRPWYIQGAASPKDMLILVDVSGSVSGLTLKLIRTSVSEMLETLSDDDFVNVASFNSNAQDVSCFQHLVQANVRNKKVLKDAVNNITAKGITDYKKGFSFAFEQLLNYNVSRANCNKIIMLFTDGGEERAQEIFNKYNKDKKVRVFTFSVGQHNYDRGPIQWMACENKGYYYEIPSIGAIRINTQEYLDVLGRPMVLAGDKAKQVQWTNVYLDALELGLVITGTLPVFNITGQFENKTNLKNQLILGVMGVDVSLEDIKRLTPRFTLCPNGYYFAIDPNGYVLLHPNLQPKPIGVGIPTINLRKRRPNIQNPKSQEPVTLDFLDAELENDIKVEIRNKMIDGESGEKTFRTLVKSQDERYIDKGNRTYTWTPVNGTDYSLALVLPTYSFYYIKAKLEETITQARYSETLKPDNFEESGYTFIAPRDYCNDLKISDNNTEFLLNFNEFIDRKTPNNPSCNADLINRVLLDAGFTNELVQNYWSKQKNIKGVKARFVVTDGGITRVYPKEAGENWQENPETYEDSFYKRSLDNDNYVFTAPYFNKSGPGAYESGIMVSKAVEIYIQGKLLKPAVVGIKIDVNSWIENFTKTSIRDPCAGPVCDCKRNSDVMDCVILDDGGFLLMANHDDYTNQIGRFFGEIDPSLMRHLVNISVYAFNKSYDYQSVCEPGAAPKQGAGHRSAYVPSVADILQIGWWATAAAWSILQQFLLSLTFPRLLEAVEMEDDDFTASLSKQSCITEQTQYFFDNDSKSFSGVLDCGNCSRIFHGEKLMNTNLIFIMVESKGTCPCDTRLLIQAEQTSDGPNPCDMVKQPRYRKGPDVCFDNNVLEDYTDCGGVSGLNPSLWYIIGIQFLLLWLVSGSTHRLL
Sequence (P54284 whole entry partner): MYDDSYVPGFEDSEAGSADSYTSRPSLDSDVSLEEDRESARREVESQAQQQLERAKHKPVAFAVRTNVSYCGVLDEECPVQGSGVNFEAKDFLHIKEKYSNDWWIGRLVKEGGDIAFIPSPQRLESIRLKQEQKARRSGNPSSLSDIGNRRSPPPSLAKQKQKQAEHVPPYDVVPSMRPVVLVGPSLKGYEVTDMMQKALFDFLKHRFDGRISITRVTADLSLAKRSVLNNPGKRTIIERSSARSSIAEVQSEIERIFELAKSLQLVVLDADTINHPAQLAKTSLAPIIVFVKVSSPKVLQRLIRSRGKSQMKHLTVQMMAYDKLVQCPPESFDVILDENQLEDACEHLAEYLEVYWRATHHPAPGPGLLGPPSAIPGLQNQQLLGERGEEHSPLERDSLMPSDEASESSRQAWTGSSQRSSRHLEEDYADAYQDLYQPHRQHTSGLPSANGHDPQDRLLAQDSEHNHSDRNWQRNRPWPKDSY
OBSERVED_PROPERTY: inhibition at 30 µM
// unit must come after the numeric part

Look over these answered cases.
CC(C)(C)c1cc(C(=O)NC2(C(=O)NCc3ccc(F)cc3F)CCCCC2)cc(C(C)(C)C)c1 :: 102%
COc1c(C(C)(C)C)cc(C(=O)NC2(C(=O)NCc3ccccc3)CCCCC2)cc1C(C)(C)C :: 98%
COc1c(C(C)(C)C)cc(C(=O)NC2(C(=O)NCc3cnc(C)cn3)CCCCC2)cc1C(C)(C)C :: 96.7%
CC(C)(C)OC(=O)N1CCC(NC(=O)c2cc(C(C)(C)C)nc(C(C)(C)C)c2)(C(=O)O)CC1 :: 77.9%
CNC(=O)C1(NC(=O)c2cc(C(C)(C)C)cc(C(C)(C)C)c2)CCCCC1 :: 98.6%
CC(C)(C)c1cc(C(=O)NC2(C(=O)NCc3ccccc3)Cc3ccccc3C2)cc(C(C)(C)C)n1 :: 91.3%
CC(C)(C#N)c1cc(C(=O)NC2(C(=O)NCc3ccccc3)CCCCC2)cc(C(C)(C)C#N)c1 :: 73.3%
CN1CCN(C(=O)C2(NC(=O)c3cc(C(C)(C)C)nc(C(C)(C)C)c3)CCCC2)CC1 :: 85.5%
Cc1cnc(CNC(=O)C2(NC(=O)c3cc(C(C)(C)C)nc(C(C)(C)C)c3)CCCC2)cn1 :: 96.1%
Cc1cc(CNC(=O)C2(NC(=O)c3cc(C(C)(C)C)cc(C(C)(C)C)c3)CCCCC2)no1 :: 106%

Read the next record carefully.
query: I'd like to know its inhibition at 30 µM. The compound in question is CC(C)(C#N)c1cc(C(=O)NC2(C(=O)NCc3cccc(C(F)(F)F)c3)CCCCC2)cc(C(C)(C)C#N)c1
result: 77.6%

====

Target: Human Cav2.2 channels (Homo sapiens)
Construct: expressed in transfected cells
Assay: Fluorescent assay for Cav2.2 channels using potassium depolarization to initiate channel opening
Type: cell-based
Details: 10 μM compound; read-out: Cav 2.2 Activity % Inh at 10 μM
Procedure: Human Cav2.2 channels were stably expressed in HEK293 cells along with alpha2-delta and beta subunits of voltage-gated calcium channels. […] Calcium influx through Cav2.2 channels is determined using a calcium sensitive fluorescent dye in combination with a fluorescent plate reader. Fluorescent changes were measured with either a VIPR (Aurora Instruments) or FLIPR (Molecular Devices) plate reader. • 1. […] Read cell plate on VIPR instrument, Excitation=480 nm, Emission=535 nm • 9. […]
Measured inhibition at 10 µM determines class: bottom range (below 70%), center range (70% to below 90%), top range (90% or more)

Consider the following illustrative entries.
CC(C)(C)c1cc(C(=O)NC2(C(=O)NCc3cccc(C(F)(F)F)c3)CCCCC2)cc(C(C)(C)C)c1 :: top range
CC(C)(C#N)c1cccc(C(=O)NC2(C(=O)NCc3ccccc3)CCCCC2)c1 :: bottom range

query: Into which bin does this compound go? Cc1cc(CNC(=O)C2(NC(=O)c3cc(C(C)(C)C)nc(C(C)(C)C)c3)CC2)no1
result: bottom range

query: What about this compound? Cc1cc(CNC(=O)C2(NC(=O)c3cc(C4CC4)cc(C4CC4)c3)CCCCC2)nn1C
result: bottom range

query: What about this compound? COc1c(C(C)(C)C)cc(C(=O)NC2(C(=O)Nc3ccccc3)CCCCC2)cc1C(C)(C)C
result: center range

Value source: patent US20090270394A1
